System: MALME-3M melanoma
Assay: NCI-60 one-dose screen, 48 h
Details: 10 µM unless noted
Experimental: Cells are grown in 96 well plates and exposed to the test compound for 48 hours. Compounds are tested at a single concentration, which is 10^-5 M for most compounds. The reported endpoint is percent growth (GI% or GIPRCNT), where numbers from 0 - 100% represent growth inhibition, and numbers from -100% - 0 represent cell death. For example, a value of 40 represents 60% growth inhibition. A value of 0 means no net growth occurred over the course of the experiment. […]
Compounds without any hit were thinned out: in the full panel of roughly 83,000, 20% have a hit. Activity calls are given as the source filed them. Rule for the calls: active = growth percent below 10; inactive = the rest.
Please answer using one outcome listed in active, inactive

As a guide, the following entries are already answered.
> print(dat)
                                   molecule  assigned.class
1  CC(C)(C)C1CCC(=NO)CC1 (stereo unspecified)        inactive
2                           O=COCCCc1ccccc1        inactive
3  COc1cc2oc3cc(=O)cc4oc(-c5ccccc5)cc(c2c2c1CCC(c1ccccc1)O2)c43 (stereo unspecified)        inactive
4                Clc1ccc2sc(-c3ccccc3)nc2c1        inactive
5  CCC(C)NC(=O)c1ccccc1C (stereo unspecified)        inactive
6                        COC(=O)CCOc1ccccc1        inactive
7                               Cc1cnc(N)s1        inactive
8                 CC(=O)Nc1ccc2oc(=O)ccc2c1        inactive

-- ask In this assay, the call recorded for CN(C=O)c1ccccc1 was what?
-- reply inactive

-- ask I would be grateful if you could indicate the recorded call for Oc1ccc(O)c(-c2ccccc2)c1 .
-- reply inactive

-- ask Record request — test call for COC(=O)c1ccccc1Cl
-- reply inactive

-- ask Write down the call the test reported for this molecule. Item: CN1C2C=CC(=O)C1C1C(=O)N(c3ccccc3)C(=O)C12 (stereo unspecified)
-- reply inactive

-- ask Any idea what this test logged for O=[N+]([O-])c1cccc(N=Cc2ccccc2)c1 ?
-- reply inactive

----------
System: NCI-H23 lung
Test: NCI-60 one-dose screen, 48 h (100 = growth as untreated, 0 = no growth, -100 = all killed)
Details: 10 µM unless noted
The panel holds about 83,000 compounds, 20% with a hit somewhere; the sample as a whole holds those more often.
measured_attribute: growth (%)
Give just the number in %; leave the unit off.

> print(dat)
              compound  study.system  value.observed
1  CC(=O)c1cc2ccccc2o1  NCI-H23 lung            97.9

-- ask For Cn1c(-c2ccccc2)cc(=O)cc1-c1ccccc1 , write its growth.
-- reply 73.8

-- ask Identify measured growth corresponding to C/C=C/C(=O)OCCCCCCCCCCCC
-- reply 105

-- ask Please look at this compound and report its growth: O=C(c1ccncc1)c1c(Cc2ccccc2)ccc2ccccc12
-- reply 55.2

-- ask Please report the measured growth for CCOCCC(=O)O
-- reply 110

-- ask Please report the measured growth for Cc1cc2ccccc2c2cc3ccccc3cc12
-- reply 94.9

-- ask Provide measured growth value, entry: Cc1cc2nc3ccc(=[N+](C)C)cc-3sc2cc1N
-- reply 21.7

-- ask Given the compound CCN(CC)CCO/N=C1\CC(c2ccc(OC)c(OC)c2)Oc2ccccc21 (stereo not given) , write its reported growth.
-- reply 96.2

-- ask Specify measured growth for Cc1c(Cl)cc(Cl)c(N)c1Cl .
-- reply 103

-- ask Answer with reported growth of Cc1cc(Cl)nc(Nc2ccccc2)n1
-- reply 95.9

-- ask Quick one: give measured growth for COc1ccc(CCO)cc1
-- reply 110

-- ask Please supply the value of reported growth for the item CC(=O)Nc1ccc2oc(=O)ccc2c1
-- reply 101

-- ask Look up and state reported growth for COc1ccc2oc3c(ccc[n+]3C)c(=O)c2c1
-- reply 105

-- ask Specify growth for CC(=O)Oc1cc(C)c(OC(C)=O)c(C)c1C and stop.
-- reply 97.3

----------
Catalogue of growth readings, one per entry.
Test system: NCI/ADR-RES ovarian
Assay: NCI-60 one-dose screen, 48 h (100 = growth as untreated, 0 = no growth, -100 = all killed)
Settings: 10 µM unless noted
About 83,000 compounds went through this panel and 20% of them were active in at least one assay; those are over-represented in the sample as a whole.
Form entry: value (%) — number only.

Observe how each entry below is paired with its result.
> print(dat)
                      smiles.entry         study.system  value.observed
1  CC(=O)C[n+]1ccccc1Sc1ccc(Cl)cc1  NCI/ADR-RES ovarian             111
2         C/C=C/C(=O)OCCCCCCCCCCCC  NCI/ADR-RES ovarian             106
3                  CN(C=O)c1ccccc1  NCI/ADR-RES ovarian            97.4
4  COc1ccc(CCN=Cc2ccc(Cl)cc2)cc1OC  NCI/ADR-RES ovarian             106
5      Cc1ccc(S(=O)(=O)n2ccnc2)cc1  NCI/ADR-RES ovarian             101

-- ask Recall and state the measured growth for CC(C)(C)OC(=O)NCCc1ccc(N)cc1 .
-- reply 99.2

-- ask Return reported growth. Input molecule: Cc1cc(Cl)nc(Nc2ccccc2)n1
-- reply 100

----------
Tested on: MCF7 breast
Assay: NCI-60 one-dose screen, 48 h (100 = growth as untreated, 0 = no growth, -100 = all killed)
Conditions: 10 µM unless noted
About 83,000 compounds went through this panel and 20% of them were active in at least one assay; those are over-represented in the sample as a whole.
Mark MET only for growth values smaller than 60%; exact matches and larger values are NOT MET.

Solved entries (count: 5):
> print(dat)
                                   compound  assigned.class
1                      O=C1Cc2ccccc2C(=O)N1             MET
2                             OCc1cccc(F)c1         NOT MET
3  Nc1ccccc1SC1CC(=O)N(c2ccc(I)cc2)C1=O (configuration not stated)         NOT MET
4                        N#Cc1c[nH]n2ccnc12         NOT MET
5  O=C(O)c1ccc2c3ccc(C(=O)O)c4c(C(=O)O)ccc(c5ccc(C(=O)O)c1c25)c43         NOT MET

Here is the next item to consider.
-- ask Hello, I'm reviewing records and need to know if growth of Oc1ccc(O)c(-c2ccccc2)c1 is below 60%. Could you check?
-- reply MET

----------
Some compounds, each annotated with its measured growth.
Tested on: SW-620 colon
Assay: NCI-60 one-dose screen, 48 h (100 = growth as untreated, 0 = no growth, -100 = all killed)
Settings: 10 µM unless noted
Procedure: Growth inhibition of the SW-620 human tumor cell line is measured as a screen for anti-cancer activity. Cells are grown in 96 well plates and exposed to the test compound for 48 hours. Compounds are tested at a single concentration, which is 10^-5 M for most compounds. The reported endpoint is percent growth (GI% or GIPRCNT), where numbers from 0 - 100% represent growth inhibition, and numbers from -100% - 0 represent cell death. For example, a value of 40 represents 60% growth inhibition. […]
This is part of a sample that, as a whole, favours compounds with a hit. Of some 83,000 tested, about 20% had one in any assay. Activity calls are given as the source filed them. How the source made its calls: active means growth percent below 10; inactive means the rest.

> print(dat)
                                   compound   value.observed
1  CC(C)(C)C1CCC(=NO)CC1 (configuration not stated)  106% (inactive)

-- ask Could you please provide reported growth for CC1CC(O)CC(C)(C)C1.CC1CC(O)CC(C)(C)C1.CC1CC(O)CC(C)(C)C1.CC1CC(O)CC(C)(C)C1.[Ti] (configuration not stated) ? Thanks!
-- reply 99.8% (inactive)

----------
Test system: SF-539 CNS
Test: NCI-60 one-dose screen, 48 h (100 = growth as untreated, 0 = no growth, -100 = all killed)
Details: 10 µM unless noted
About 83,000 compounds went through this panel and 20% of them were active in at least one assay; those are over-represented in the sample as a whole.
measured_attribute: growth (%)
Entry rule: numbers only, all in %.

> print(dat)
                                   compound  measured.attribute  unit.symbol  value.observed
1               Cc1ccc(S(=O)(=O)n2ccnc2)cc1              growth            %            96.7
2  CCCCCCC(C)CC1=C(O)c2ccccc2C(=O)C1=O (stereo unspecified)              growth            %              34
3                               OCc1ccccc1F              growth            %             101
4  O=[N+]([O-])c1ccc(NC(c2ccccc2)c2ccc3cccnc3c2O)cc1 (stereo unspecified)              growth            %              14
5  COC(=O)c1nc(=S)[nH]c(C(=O)OC)c1C(=O)c1ccccc1              growth            %            87.8

Let us move to another entry and its growth.
-- ask Give the reported growth for this compound. COc1cc(C2c3cc4c(cc3C(OC(=O)C[n+]3ccccc3)C3COC(=O)C23)OCO4)cc(OC)c1OC (stereo unspecified)
-- reply -9.3
